pIC50: −log10 of the molar value.
What follows is a collection of pIC50 values obtained with von Hippel-Lindau disease tumor suppressor (Homo sapiens).
Sequence (P40337 whole entry): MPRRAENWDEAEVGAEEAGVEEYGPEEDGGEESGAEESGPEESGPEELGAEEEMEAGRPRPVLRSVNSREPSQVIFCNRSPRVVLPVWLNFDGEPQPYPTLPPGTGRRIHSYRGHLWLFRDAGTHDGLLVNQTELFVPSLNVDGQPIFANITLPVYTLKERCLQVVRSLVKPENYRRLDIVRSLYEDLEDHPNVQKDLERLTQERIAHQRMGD
METRIC NAME: pIC50

1. Cc1ncsc1-c1ccc([C@H](C)NC(=O)[C@@H]2C[C@@H](O)CN2C(=O)[C@H](C(C)C)n2cc([C@H]3CC[C@H](CN4CCC(c5ccc6c(c5)C(C)(C)c5nc(=O)c7c(Cl)cccc7n5-6)CC4)CC3)nn2)cc1 8.68
2. Cc1ncsc1-c1ccc([C@H](C)NC(=O)[C@@H]2C[C@@H](O)CN2C(=O)[C@@H](n2cc([C@H]3CC[C@H](CN4CCC(c5ccc6c(c5)C(C)(C)c5nc(=O)c7c(Cl)cccc7n5-6)CC4)CC3)nn2)C(C)(C)C)cc1 8.82

All values here come from ChEMBL document CHEMBL6096658.
